Measured values drawn from the supplement of paper PMC10567573 for this set.

B1: FBXO3 (parent)
chain: GGFPIIRDQIFRYVHDPECVATTG

- Variants of: B1
- experimental details: protein stability index of a GFP-peptide fusion (GPS, HEK-293T) (PSI 1-6); higher = more stable;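 note: lentivirally expressed fusions sorted by FACS into six bins by GFP to DsRed ratio, PSI derived from sequencing read proportions per bin multiplied by bin number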
- reported conditions: c terminus: a fixed tail appended
Rule: protein stability index of 2 or more gives met; anything lower gives not met.

# input sequence, qualitative label
rows = [
    ("GGFPIRRDQIFRYVHDPECVATTG", "met"),
    ("GGVPIIRDQIFRYVHDPECVATTG", "met"),
    ("GGFPIIRDQIFRCVHDPECVATTG", "met"),
    ("GGFPIIRDQIFRYVHDPECVATPG", "not met"),
    ("GGFPIIRDQIFRYVHDLECVATTG", "not met"),
    ("GGFPIIRDQIFRYVHDPETVATTG", "met"),
    ("GGFPIIRDQIFRYVHDPECVANTG", "met"),
    ("GGFPPIRDQIFRYVHDPECVATTG", "not met"),
    ("GGFNIIRDQIFRYVHDPECVATTG", "met"),
    ("NGFPIIRDQIFRYVHDPECVATTG", "met"),
    ("GGFPIIRDQIWRYVHDPECVATTG", "not met"),
    ("GHFPIIRDQIFRYVHDPECVATTG", "not met"),
    ("GGFPIIRDQIMRYVHDPECVATTG", "met"),
    ("GGFPIIRDQIFRYVHDRECVATTG", "not met"),
    ("GGFYIIRDQIFRYVHDPECVATTG", "met"),
    ("GGFPIIRDQIFEYVHDPECVATTG", "met"),
    ("GGFPIIRDQIFRPVHDPECVATTG", "met"),
    ("GGFPIIRDQIFRYVHDKECVATTG", "met"),
    ("GGFPIIRDQIFRYIHDPECVATTG", "met"),
    ("GGFPIIWDQIFRYVHDPECVATTG", "met"),
    ("GGPPIIRDQIFRYVHDPECVATTG", "met"),
    ("VGFPIIRDQIFRYVHDPECVATTG", "not met"),
    ("GGFPIIRDQIFRYVHDPEEVATTG", "met"),
    ("WGFPIIRDQIFRYVHDPECVATTG", "not met"),
    ("GGFPIIRDLIFRYVHDPECVATTG", "met"),
    ("GGFPIIRDNIFRYVHDPECVATTG", "met"),
    ("PGFPIIRDQIFRYVHDPECVATTG", "met"),
    ("GYFPIIRDQIFRYVHDPECVATTG", "not met"),
    ("GGFPIVRDQIFRYVHDPECVATTG", "not met"),
    ("GGFPIIRDQIFRYVHDPECVARTG", "met"),
    ("GGFPIIRDQIFRYVHDPECRATTG", "not met"),
    ("GGFPIIRDQIFRYVHDPECVATTH", "met"),
    ("GGKPIIRDQIFRYVHDPECVATTG", "met"),
    ("GGFPIIRDQIFRYVHDPECVATRG", "not met"),
    ("GGFPIIRDQIFRYGHDPECVATTG", "met"),
    ("GGFPIIRDQIFRYVHDPENVATTG", "not met"),
    ("GGFFIIRDQIFRYVHDPECVATTG", "met"),
    ("GGFPIIRDQIFRYVHDTECVATTG", "met"),
    ("GGGPIIRDQIFRYVHDPECVATTG", "met"),
    ("GGFCIIRDQIFRYVHDPECVATTG", "met"),
    ("GGFPIIRDQIFRYVHDYECVATTG", "not met"),
    ("GGFPIIRDQIFRYVHDPECVATYG", "not met"),
    ("GGRPIIRDQIFRYVHDPECVATTG", "met"),
]
